system: HACAT; experiment: qHTS assay to identify novel small-molecules to repurpose for Merkel cell carcinoma treatment (AID 1296009); conditions: MCC and control cell lines, CellTiter-Glo viability, 72 h; at 44.8 µM (top of the series) unless noted; also: nearly all actives have a fitted effect of over 60% in size
Inconclusive results are not listed. Active and inactive are the calls of the source. Calls follow the shape of the dose curve; as a rule, active = well fitted inhibition curve with a large enough effect; inconclusive = small, poorly fitted or top-dose-only effect; inactive = flat fitted curve, though single readings scatter.
ATTRIBUTE MEASURED: outcome

stdin: Please look up its outcome: C/C=C(\C)C(=O)O[C@@H]1[C@@H](C)[C@]2(O)[C@@H]3C=C(C)C(=O)[C@H]3CC(CO)=C[C@H]2C2C(C)(C)[C@@]21OC(=O)C(C)CC (some centres undefined)
stdout: inactive [at 17.4 µM]

stdin: Which outcome value belongs to O=C(Nc1ccccc1)N1CCN(c2nc(-c3ccccc3)ns2)CC1 ?
stdout: inactive

stdin: Return reported outcome; argument: CC(C)(F)CC(NC(c1ccc(-c2ccc(S(C)(=O)=O)cc2)cc1)C(F)(F)F)C(=O)NC1(C#N)CC1 (centres undefined)
stdout: inactive

stdin: Endpoint output: outcome of CC(C)Nc1nc(Nc2ccccc2)nc(-c2ccccc2)n1 . Value?
stdout: inactive

stdin: For CNc1nc(NCc2ccc(NS(C)(=O)=O)cc2Cl)cc(-c2ccccn2)n1 , what is its reported outcome?
stdout: inactive

Switching to the query record.
stdin: Recorded outcome for C/C=C/C1=CC2=C(CO1)C(=O)C(C)(OC(=O)c1c(C)cc(O)cc1OC)C(O)C2 (centres undefined) , please?
stdout: inactive

----------
tested on: CASKI; experiment: Primary qHTS to identify gynecologic anti-cancer compounds using libraries of approved drugs and bioactive compounds (AID 1345084); conditions: Gynecologic cancer cell panel viability, ATPlite luminescence, 48 h; series mostly up to 57.5 µM; also: potency is read from the fitted curve at half-maximal effect; nearly all actives have a fitted effect of over 55% in size
Records with an inconclusive call do not appear. Activity calls are given as the source filed them. Calls follow the shape of the dose curve; as a rule, active = well fitted cell-killing curve with a large enough effect; inconclusive = small, poorly fitted or top-dose-only effect, or effect the other way; inactive = flat fitted curve, though single readings scatter.
ATTRIBUTE MEASURED: Potency

Below, 3 molecules whose answers are already recorded.
stdin: Field request: Potency | item: C=C(C)C(=O)O[C@H]1[C@H]2C(=C)C(=O)O[C@@H]2C[C@@H](C)[C@@H]2O[C@@H]2C(=O)[C@](C)(O)[C@@H]1OC(=O)C(=C)C
stdout: 10 µM (active)

stdin: // returns reported Potency for input C=CC(=O)N1CCC(Oc2cc3c(Nc4ccc(Cl)c(Cl)c4F)ncnc3cc2OC)CC1
stdout: 22.4 µM (active)

stdin: Consider the molecule Cn1ncc(Cl)c1-c1cc(C(=O)N[C@H](CN)Cc2ccc(F)c(F)c2)oc1Cl and give its measured Potency.
stdout: 3.98 µM (active)

New cases:
stdin: What does the record list as Potency for CCC1C(=O)N(C)c2cnc(Nc3ccc(C(=O)NC4CCN(C)CC4)cc3OC)nc2N1C1CCCC1 (stereo not drawn) ?
stdout: 3.98 µM (active)

stdin: Returns the measured Potency for the input molecule. Input: C[C@@H](Nc1ncnc2[nH]c(-c3ccc(O)cc3)cc12)c1ccccc1
stdout: 22.4 µM (active)

stdin: Sample C=C(C)C1CC(O)C(C)C12CC(O)C1(C)OC1C2O (stereo not drawn) — what was its Potency?
stdout: 12.6 µM (active)

stdin: Can you look up the measured Potency of COc1cc2c(NC3CCN(C(C)C)CC3)nc(N3CCC(F)(F)CC3)nc2cc1OCCCN1CCCC1 for me?
stdout: 31.6 µM (active)

stdin: What Potency value was documented for this molecule, CC(/C=C/C(=O)NO)=C\[C@@H](C)C(=O)c1ccc(N(C)C)cc1 ?
stdout: 1.58 µM (active)

stdin: Name the reported Potency value associated with the molecule COc1cc(N2CCC(N)CC2)ccc1Nc1ncc(Cl)c(-c2c[nH]c3ccccc23)n1
stdout: 28.2 µM (active)

stdin: Would you kindly share the measured Potency for c1cc(NC2CCNCC2)nc(-c2cnc3ccccn23)c1 ?
stdout: 10 µM (active)

stdin: Which Potency is reported for this molecule? Cc1[nH]c2ccccc2c1CCNCc1ccc(/C=C/C(=O)NO)cc1
stdout: 0.447 µM (active)

stdin: Quick check: Potency of C#CC(=O)N(c1ccc(OC)cc1OC)C(C(=O)NCC(=O)OCC)c1cccs1 (stereo not drawn) ?
stdout: 22.4 µM (active)

stdin: What value of measured Potency is listed for Cc1cc(-c2nc3cc(F)ccc3s2)ccc1NC(=O)[C@@H](N)CCCCN ?
stdout: 14.1 µM (active)

stdin: Can you look up the measured Potency of Cc1ccc(-c2cn3c4c(sc3n2)CCCC4)cc1 for me?
stdout: 17.8 µM (active)

stdin: Form field: reported Potency of CCn1c(-c2nonc2N)nc2c(C#CCO)ncc(OCCCN)c21
stdout: 25.1 µM (active)

stdin: For the molecule shown here, C=CC(=O)Nc1cccc(Nc2nc(Nc3ccc(NC4CN(CCF)C4)cc3OC)ncc2C(F)(F)F)c1 , give the reported Potency.
stdout: 17.8 µM (active)

stdin: If you can, please state the reported Potency value of CN[C@H]1CC[C@@H](c2ccc(Cl)c(Cl)c2)c2ccccc21 .
stdout: 28.2 µM (active)

stdin: Tell me the measured Potency of CCC(C)CC(=O)OC1C(=O)C(CO)=CC(O)C1C(C)C (stereo not drawn) , please.
stdout: 28.2 µM (active)

----------
Biological target: Phospholipid hydroperoxide glutathione peroxidase GPX4 (Homo sapiens) (UniProt P36969)
Sequence (P36969 whole entry, looked up): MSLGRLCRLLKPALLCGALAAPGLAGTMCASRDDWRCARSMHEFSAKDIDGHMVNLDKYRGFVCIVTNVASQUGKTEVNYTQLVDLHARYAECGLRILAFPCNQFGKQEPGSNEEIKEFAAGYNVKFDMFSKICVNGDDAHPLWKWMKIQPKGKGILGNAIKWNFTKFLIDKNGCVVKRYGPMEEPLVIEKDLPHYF
Test: Primary qHTS Assay for Inhibitors of Recombinant Selenoprotein Glutathione Peroxidase 4 (GPX4) (AID 1845192); also: nearly all actives have a fitted effect of over 65% in size
Conditions: recombinant GPX4, GR-coupled NADPH fluorescence, 15 min; series mostly up to 50 µM
Experimental: Assay Provider: Elias S.J. Arner MD PhD. Department of Medical Biochemistry and Biophysics Karolinska Institutet, Solna, Stockholm, Sweden […] 6; Detection; Fluorescence; ViewLux microplate reader, excitation 340 nm and emission 450 nm. […] 8; Detection; Fluorescence; ViewLux microplate reader, excitation 340 nm and emission 450 nm. […] 6. Initial fluorescence readout (t=0) at 340/450 nm was measured using a ViewLux multimodal detector (PerkinElmer, Waltham, MA). […]
Records with an inconclusive call do not appear. Activity calls are given as the source filed them. Calls follow the shape of the dose curve; as a rule, active = well fitted inhibition curve with a large enough effect; inconclusive = small, poorly fitted or top-dose-only effect; inactive = flat fitted curve, though single readings scatter.
Write down one outcome, taken from yes (active), no (inactive)

Take a look at these entries with their results.
stdin: Which outcome was entered for the compound C=C(C)C(=O)O[C@H]1[C@H]2C(=C)C(=O)O[C@@H]2C[C@@H](C)[C@@H]2O[C@@H]2C(=O)[C@](C)(O)[C@@H]1OC(=O)C(=C)C in this test?
stdout: no

stdin: Hey, what did the test say about Cc1ccc(NC(=O)N2CCN(c3nc(N)nc4sc(-c5cccnc5)nc34)CC2)cc1 ?
stdout: yes

stdin: What was the test verdict on Cc1cc(F)ccc1[C@H]1C[C@@H](N2CCN3C(=O)CC[C@H]3C2)CCN1C(=O)N(C)[C@H](C)c1cc(C(F)(F)F)cc(C(F)(F)F)c1 ?
stdout: no

stdin: Hi team, can someone confirm the assay call for COc1ccncc1C(=O)NC(=O)Nc1ccc(-c2ccccc2)c(C(F)(F)F)c1 ?
stdout: no

stdin: For this compound, state the assay outcome: CN(C)CCOc1cc(NS(=O)(=O)c2c(Cl)cc(C(F)(F)F)cc2Cl)ccc1Cl
stdout: no

In the following, a different compound is considered.
stdin: Would you mind telling me which call this test gave COc1cc(O)c2c(c1)C1OC1C[C@H](O)[C@H](O)C(=O)/C=C\C[C@H](C)OC2=O (some centres undefined) ?
stdout: no

----------
test system: HEK293; assay: Cytotoxic Profiling of Annotated Libraries Using Quantitative High-Throughput Screening (AID 1296008); details: Five cell lines viability, CellTiter-Glo ATP luminescence, 48-72 h; also: potency is read from the fitted curve at half-maximal effect; nearly all actives have a fitted effect of over 60% in size
Records with an inconclusive call do not appear. Calls of active or inactive are those of the source. Calls follow the shape of the dose curve; as a rule, active = well fitted inhibition curve with a large enough effect; inconclusive = small, poorly fitted or top-dose-only effect; inactive = flat fitted curve, though single readings scatter.
Entries and their Potency

stdin: Request: Potency, test system HEK293, entry Fc1ccc(-c2nc(C3CCNCC3)sc2-c2ccnc(NC3CC3)n2)cc1
stdout: 1.64 µM (active)

stdin: Short answer please: Potency, HEK293, entry Cc1nc(C#Cc2ccnc(Cl)c2)c(C)n1-c1ccc(F)cc1
stdout: 7.31 µM (active)

stdin: Param readout= Potency; system= HEK293; entry= CCCc1cc(C)[nH]c(=O)c1CNC(=O)c1cc(-c2ccc(N3CCN(C(C)C)CC3)nc2)cc2c1cnn2C(C)C ; returns value.
stdout: 11.6 µM (active)

stdin: Which measured Potency belongs to C=CC(=O)Nc1cccc(Nc2nc(Nc3ccc(OCCOC)cc3)ncc2F)c1 , tested on HEK293?
stdout: 8.2 µM (active)

stdin: Query Potency on HEK293 for CN(C)CCOC(C)(c1ccccc1)c1ccc(Cl)cc1 (centres undefined)
stdout: 20.6 µM (active)

stdin: Recorded Potency for Cc1cn(CCN2CCN(c3ccccc3-c3cc(C#N)cc(C(=O)NCCCN4CCCC4)c3)CC2)c2ccccc12 with HEK293, please?
stdout: 14.8 µM (active)

stdin: Find Potency (HEK293) for the entry CN(C)C(=O)NC1(c2ccccc2)CCN(CCC[C@]2(c3ccc(Cl)c(Cl)c3)CCCN(C(=O)c3ccccc3)C2)CC1
stdout: 16.4 µM (active)

stdin: Observed Potency on HEK293 for N#Cc1ccc(O[C@@H]2c3ccccc3C[C@H]2N2CCC[C@@H](N)C2)c(Cl)c1 , please.
stdout: 20.6 µM (active)

stdin: Provide the documented Potency with HEK293 as the system for CC1CCC/C=C/C(=O)c2c(O)cc(O)cc2CC(=O)O1 (centres undefined)
stdout: 4.11 µM (active)

stdin: Query Potency on HEK293 for Nc1nc(Nc2ccc3c(c2)CCC(N2CCCC2)CC3)nn1-c1cc2c(nn1)-c1ccccc1CCC2 (centres undefined)
stdout: 8.2 µM (active)

stdin: # query: Potency | item COC(=O)Nc1cc(Nc2cc(NC3CC3)c3ncc(C#N)n3n2)c(Cl)c(N2CCN(C)CC2)c1 | system: HEK293
stdout: 1.32 µM (active)

stdin: Any idea what Potency came out for COCC(=O)NC/C=C/c1ccc2ncnc(Nc3ccc(Oc4ccc(C)nc4)c(C)c3)c2c1 on HEK293?
stdout: 14.6 µM (active)

stdin: # query: Potency | item C/C(=N\N=C(N)N)c1cc(NC(=O)CCCCCCCCC(=O)Nc2cc(/C(C)=N/N=C(N)N)cc(/C(C)=N/N=C(N)N)c2)cc(/C(C)=N/N=C(N)N)c1 | system: HEK293
stdout: 7.31 µM (active)

stdin: // fetch HEK293 Potency for C=C1C(=O)OC2/C=C(\COC(C)=O)CC/C=C(\C=O)CC(OC(=O)C(C)CC)C12 (centres undefined)
stdout: 3.55 µM (active)

stdin: Identify the measured Potency of NC(=O)c1cnc(N[C@@H]2CCCC[C@H]2N)nc1Nc1cccc(-n2nccn2)c1 for HEK293.
stdout: 20.6 µM (active)

stdin: Form: Entry = Cn1ncc(Cl)c1-c1cc(C(=O)NC(CN)Cc2ccc(F)c(F)c2)oc1Cl (centres undefined) | System = HEK293 | Potency = ____
stdout: 0.231 µM (active)

stdin: So what Potency did Cc1cc(NC(=O)c2cccc(NC(=O)/C=C/CN(C)C)c2)ccc1Nc1nccc(-c2cccnc2)n1 get with HEK293?
stdout: 9.2 µM (active)

stdin: # returns recorded Potency (system: HEK293) for C=C(C)C(=O)OC1CC2(C)OC(=CC2=O)C(=C)CC2OC(=O)C(=C)C12 (centres undefined)
stdout: 0.718 µM (active)

stdin: Query for HEK293: what Potency does the record show for COc1cccc(OCCCN)c1-c1cc(Nc2cnc(C#N)cn2)n[nH]1 ?
stdout: 0.0103 µM (active)
